Where these numbers come from: PubChem BioAssay (NCI)

# System: RPMI-8226 leukemia
# ASSAY_METHOD_TEXT: NCI-60 one-dose screen, 48 h
# CONDITION_NOTES: 10 µM unless noted
Compounds without any hit were thinned out: in the full panel of roughly 83,000, 20% have a hit. Activity calls are given as the source filed them. Rule for the calls: active = growth percent below 10; inactive = the rest.
Parameter call: string, one of active, inactive

CCOC(=O)c1c(NC(=O)c2cccc(C(F)(F)F)c2)sc2c3c(ccc12)OCN(C)C3: active
O=C(/C=C/c1cccc(Br)c1)c1cccc(OCCCCOc2cccc(C(=O)/C=C/c3cccc(Br)c3)c2)c1: inactive
COc1cc(C(C)=C(c2ccc(OCCN(C)C)cc2)c2ccc(OCCN(C)C)cc2)ccc1F: inactive

Exam item: Identify the outcome logged in this assay for the compound shown: FC(F)(F)c1cc(Br)cc(-c2cc(-c3ccc4c(c3)OCCO4)[nH]n2)c1
Marked response: inactive

Exam item: Look up the recorded call for NCCNC(=O)c1cccc(COc2ccccc2NC(=O)c2cc(Cl)c(Cl)[nH]2)c1 in this test.
Marked response: inactive

Exam item: Please let me know the test result on file for CC(C)Sc1nc(-c2ccccc2)c(C#N)c(N2CCOCC2)n1 .
Marked response: inactive

Exam item: Name the outcome recorded for O=C(Nc1cc(C(F)(F)F)cc(C(F)(F)F)c1)Nc1ccc2oc(=O)ccc2c1 in the assay.
Marked response: active

Exam item: Dear all, I need the recorded test outcome for CCN(CC)CCOc1ccc(C(=C(C)c2ccc(OC)cc2)c2ccc(OCCN(CC)CC)cc2)cc1 , thank you.
Marked response: active

Exam item: What did this assay record as the result for CC/C(=C(/c1ccc(Cl)cc1)c1ccc(OCCN)cc1)c1ccccc1 ?
Marked response: inactive

Exam item: For O=C(CCCCCCNC(=O)C(O)(O)C(F)(F)F)Nc1ncc(-c2ccccc2)s1 , which call appears in the assay record?
Marked response: inactive

Exam item: What call does the record list for Cc1[nH]c(C(=O)Nc2ccccc2OCc2cccc(C(=O)NC3CCNC3)c2)c(Cl)c1Cl (centres undefined) ?
Marked response: active

Exam item: Called result for CN1CCN(c2ccc(Nc3nc(NCCCNS(=O)(=O)c4ccc(C(F)(F)F)cc4)c4sccc4n3)cc2)CC1
Marked response: active

Exam item: Assay outcome for CN1CCN(c2ccc(Nc3nc(NCCNC(=O)c4ccc(F)cc4)c4sccc4n3)cc2)CC1 : what was it?
Marked response: inactive

Exam item: // outcome(item) with item = NS(=O)(=O)c1cccc(Nc2nc(SCC(=O)c3ccc(Cl)cc3)nc3c2CCC3)c1
Marked response: inactive

Exam item: Per the assay record, what outcome was assigned to O=[N+]([O-])c1ccc(NC(=S)NNC(=S)Nc2ccc(Br)cc2)cc1 ?
Marked response: inactive

Exam item: Tell me the assay call for COc1ccccc1N1CCN(C2=C(Cl)C(=O)c3ncccc3C2=O)CC1 please.
Marked response: inactive

Exam item: What was the test verdict on CC1(C)CC[C@]23CC[C@]4(C)[C@H](CC[C@@H]5[C@@]6(C)CC[C@H](N)C(C)(C)[C@@H]6CC[C@]54C)[C@H]2[C@H]1OC3 ?
Marked response: active

Exam item: Please share the test call associated with C=C(C=O)[C@@H]1CC[C@]2(C(=O)O)CC[C@]3(C)C(CC[C@@H]4[C@@](C)(CCC#N)[C@H](C(=C)C=O)CC[C@]43C)[C@@H]12 (some centres undefined) .
Marked response: active

Exam item: Would you mind telling me which call this test gave O=S(=O)(Oc1ccc(-c2cn3ccsc3n2)cc1)c1cccc(C(F)(F)F)c1 ?
Marked response: inactive

Exam item: Name the outcome recorded for CC1(C)CC[C@]2(C(=O)O)CC[C@]3(C)C(=CC[C@@H]4[C@@]5(C)CC[C@H](NOCCCN)C(C)(C)[C@@H]5CC[C@]43C)[C@@H]2C1 in the assay.
Marked response: inactive

Exam item: // param item: O=C(Nc1ccc(Cl)c(C(F)(F)F)c1)Nc1ccc2c(ccn2C(=O)c2cccc(F)c2)c1 ; yields the recorded call
Marked response: active

Exam item: Could you check what this test reported for CCOP(=O)(OCC)OC[C@]12CCC(C)(C)C[C@H]1C1=CC[C@@H]3[C@@]4(C)CC[C@H](OP(=O)(OCC)OCC)C(C)(C)[C@@H]4CC[C@@]3(C)[C@]1(C)CC2 ?
Marked response: active

Exam item: Recorded test call requested for CC1(C)CC[C@]23CC[C@]4(C)[C@H](CC[C@@H]5[C@@]6(C)CC[C@H](NCO)C(C)(C)[C@@H]6CC[C@]54C)[C@H]2[C@H]1OC3
Marked response: inactive

Exam item: Look up the recorded call for Cn1cc(-c2cc3ncnc(Nc4ccc(NC(=O)Nc5cc(C(C)(C)C)on5)cc4)c3s2)cn1 in this test.
Marked response: active

Exam item: How did this test come out for CCc1cc(O)ccc1Nc1cc(-c2ccc(-n3cccn3)cc2)[nH]n1 ?
Marked response: inactive

Exam item: Recorded test call requested for CC[C@]12CC(C(=O)OC)=C3Nc4ccccc4[C@@]34CCN(C14)[C@@H]1c3cc4c(cc3O[C@@H]1[C@H]2O)NC1=C(C(=O)OC)C[C@@]2(CC)C3N(CC[C@@]143)C[C@H]1O[C@H]12 (some centres undefined)
Marked response: active

Exam item: Recorded test call requested for N#C/C(=C\c1ccc(-c2ccc(Cl)cc2)o1)C(=O)Nc1ncc(Cc2ccc(Br)cc2)s1
Marked response: inactive

###

# Test system: M14 melanoma
# ASSAY_METHOD_TEXT: NCI-60 one-dose screen, 48 h (100 = growth as untreated, 0 = no growth, -100 = all killed)
# CONDITION_NOTES: 10 µM unless noted
This is part of a sample that, as a whole, favours compounds with a hit. Of some 83,000 tested, about 20% had one in any assay.
ENDPOINT_LABEL: growth (%)
Note: unit % is implicit; provide only the numeric part.

Sample answers from the record:
N#Cc1nc(-c2ccccc2)oc1N1CCC(C2(C(F)(F)F)N=N2)CC1: 102
C#Cc1nc(C(=O)NCCCCCCC(=O)NO)cs1: 16.6
COc1ccc(NC(=O)CCCCCCNC(=O)C(O)(O)C(F)(F)F)cc1: 49.6

Exam item: Please list growth recorded for the compound c1ccc(-c2cn3c(-c4c[nH]c5ccccc45)csc3n2)cc1
Marked response: 73

###

# Test system: NCI-H322M lung
# ASSAY_METHOD_TEXT: NCI-60 one-dose screen, 48 h (100 = growth as untreated, 0 = no growth, -100 = all killed)
# CONDITION_NOTES: 10 µM unless noted
This is part of a sample that, as a whole, favours compounds with a hit. Of some 83,000 tested, about 20% had one in any assay.
Items are presented alongside their recorded growth.
Give the quantity in %, number only.

NS(=O)(=O)c1ccc(Nc2nc(N/N=C/C=C/c3ccccc3)nc(Nc3ccccc3)n2)cc1: 56.8
Cc1ccc2c(n1)C(=O)C(Cl)=C(Nc1cccc(C(F)(F)F)c1)C2=O: 108
C[C@H]1OCC2(CCN(c3cnc(C(=O)Nc4cc(F)cc5cccnc45)cn3)CC2)[C@H]1N: 81.4
CCCCCCNC(=O)Oc1ccc(/C(=C(/C)c2ccc(Cl)cc2)c2ccc(OCCN3CCCCCC3)cc2)cc1: 96.8
Cc1csc(/N=C(N)/N=C(\N)c2cccs2)n1: 100

Exam item: Supply reported growth belonging to this molecule: O=S(=O)(NCCCNc1nccc(-c2[nH]c(-c3ccccc3)nc2-c2ccc(F)c(O)c2)n1)c1cccc2ccccc12
Marked response: 98.2

Exam item: For the molecule O=C(CCCCCCNC(=O)C(O)(O)C(F)(F)F)Nc1ccc(Br)cc1 , give its reported growth.
Marked response: 27.1

Exam item: State, in one line, measured growth of CCc1cc2c(cc1Cl)nc1c(=O)[nH]c(=O)nc-1n2CCOCC(C)C
Marked response: 54.9

Exam item: Return the recorded growth value; entry: Cc1ccc2c(n1)C(=O)C(Cl)=C(Nc1ccc(C)c(C)c1)C2=O
Marked response: 60.9

###

# Test system: TK-10 renal
# ASSAY_METHOD_TEXT: NCI-60 one-dose screen, 48 h
# CONDITION_NOTES: 10 µM unless noted
About 83,000 compounds went through this panel and 20% of them were active in at least one assay; those are over-represented in the sample as a whole. The source made the active and inactive calls. How the source made its calls: active means growth percent below 10; inactive means the rest.
Classes to choose from: class 1 = active, class 0 = inactive

These solved cases illustrate the format of a correct answer.
NC1[C@H]2CN(c3cnc(C(=O)Nc4cc(F)cc5cccnc45)cn3)C[C@@H]12 (some centres undefined): class 0
O=C(O)c1ccc(-n2c(=O)n(-c3cccc(C(F)(F)F)c3)c(=O)c3cc(-c4ccc(F)cc4F)ccc32)cc1: class 1
CCN(CC)CCOc1ccc(C(=C(c2ccccc2)C2CCCC2)c2ccc(OCCN(CC)CC)cc2)cc1: class 0
Cc1ccc2c(n1)C(=O)C(Cl)=C(Nc1cccc(C(F)(F)F)c1)C2=O: class 0
COc1ccc(/C(=N\N=C(N)N)c2ccc(Cl)cc2)cc1OC: class 0
O=C1Nc2ccccc2/C1=N\c1nnc(-c2ccccc2)o1: class 0
CC(=C(c1ccc(OCCCN(C)C)cc1)c1ccc(OCCCN(C)C)cc1)c1ccc(Cl)cc1: class 0
NC(N)=NS(=O)(=O)c1ccc(N=Nc2c(N)nn(-c3ccc([N+](=O)[O-])cc3[N+](=O)[O-])c2N)cc1: class 0

Now take the following compound into account.
Exam item: Could you kindly confirm the outcome this assay logged for O=C(Nc1cccc(Cl)c1)Nc1nc2cc([N+](=O)[O-])ccc2o1 ?
Marked response: class 0
